Property: self-cleavage; scope: individual variants
B1: CPEB3 Ribozyme (parent)
chain: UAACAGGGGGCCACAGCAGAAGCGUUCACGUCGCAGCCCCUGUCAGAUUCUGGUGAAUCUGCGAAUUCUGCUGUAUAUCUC

Variants of: B1
Experiment: self-cleavage, relative activity (ratio to wild type); higher = more cleavage; in vitro, sequencing
Please reply with the value in numeric form only.

G19U U72A = 0.32
U26C U51G = 0.46
C71G = 0.42
A3G U49C = 0.49
U26C C62A = 0.38

Reported self-cleavage ( C71A U72A ) = 0.22

Reported self-cleavage ( G7A A47G ) = 0.09

Reported self-cleavage ( A45C U49C ) = 0.11

Reported self-cleavage ( G6A G53A ) = 0.34

Reported self-cleavage ( U54C U69G ) = 0.43

Reported self-cleavage ( A18U A77G ) = 0.51

Reported self-cleavage ( C27U A47U ) = 0.44

Reported self-cleavage ( A20U G52C ) = 0.27

Reported self-cleavage ( A35G C79U ) = 1.51

Reported self-cleavage ( A2C A28G ) = 0.51

Reported self-cleavage ( A20G U31C ) = 0.56

Reported self-cleavage ( A20C U72G ) = 0.09

Reported self-cleavage ( A21G A47G ) = 0.42

Reported self-cleavage ( U67C C68U ) = 0.46

Reported self-cleavage ( U54C C59U ) = 0.68

Cited source: the RNAGym collection of RNA variant scans (doi:10.1093/nar/gkz1192)
